Assignment: determine reported z-score for the given compounds.
testDetails: blockers of DNA damage checkpoint Chk1 activation – imaging, HeLa, hydroxyurea, phospho-Chk1 nuclear intensity, primary screen (AID 1187); note: test concentration not given here
conditionSet: hydroxyurea-induced phospho-Chk1 immunofluorescence imaging, higher = more signal
Activity calls are given as the source filed them. The rule behind the calls is not given here.

[[record]]
compound = "Cc1ccc(S(=O)(=O)N2CC(C(=O)O)=CCC2c2ccccc2)cc1 (stereo not given)"
valuereported = "-0.655 (inactive)"

[[record]]
compound = "O=C1C[C@@](C(=O)O)(c2ccc([N+](=O)[O-])cc2)[C@@H](c2ccc(CO)cc2I)N1CC12CC3CC(CC(C3)C1)C2"
valuereported = "0.285 (inactive)"

[[record]]
compound = "O=C1O[C@H](c2ccccc2)[C@H](c2ccccc2)N2[C@H]1[C@@H](C(=O)N1CCCCCCC1)[C@]1(C(=O)Nc3ccc(C#CC4=CCCCC4)cc31)[C@H]2c1ccc(O)cc1"
valuereported = "-0.649 (inactive)"

[[record]]
compound = "C=CCNC(=O)[C@@H]1[C@H]2C(=O)O[C@H](c3ccccc3)[C@H](c3ccccc3)N2[C@H](c2ccccc2OCCO)[C@@]12C(=O)N(C(=O)OCCOC)c1ccc(C#CCC(C(=O)OC)C(=O)OC)cc12"
valuereported = "0.361 (inactive)"


Fill in the blank: the reported z-score of "C=C(COC)/C(=C/C[C@H](OC(C)=O)c1ccccc1OCCO)c1cnc2ccccc2c1" is ____.
0.19 (inactive)

====

assaySystem: Torsin-1A-interacting protein 2 (Homo sapiens) (UniProt Q8NFQ8)
Sequence (Q8NFQ8 whole entry, looked up): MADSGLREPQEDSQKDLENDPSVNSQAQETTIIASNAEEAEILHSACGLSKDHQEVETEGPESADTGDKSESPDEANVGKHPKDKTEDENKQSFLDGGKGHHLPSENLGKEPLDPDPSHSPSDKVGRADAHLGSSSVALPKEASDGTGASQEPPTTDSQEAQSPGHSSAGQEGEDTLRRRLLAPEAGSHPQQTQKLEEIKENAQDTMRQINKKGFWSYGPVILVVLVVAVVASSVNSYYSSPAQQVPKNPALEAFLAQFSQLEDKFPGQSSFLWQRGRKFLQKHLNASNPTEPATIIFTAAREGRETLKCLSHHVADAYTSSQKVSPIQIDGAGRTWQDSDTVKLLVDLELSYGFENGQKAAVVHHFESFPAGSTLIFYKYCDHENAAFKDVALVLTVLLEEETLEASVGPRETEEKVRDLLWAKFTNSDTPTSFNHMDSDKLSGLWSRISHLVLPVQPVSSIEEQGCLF
testDetails: small molecules binding lysate-expressed LULL1 – cell lysate, human LULL1 lysate, 635/667 nm fluorescence, primary screen (AID 1092);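 note: probe is lysate of COS7 cells overexpressing human LULL1; score merges per-feature 667 nm fluorescence with signal-to-noise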
conditionSet: small-molecule microarray, hLULL1 lysate binding, 635 nm fluorescence; higher = more signal
Exercise: state measured composite z-score for each of the molecules provided.
Answers are plain numbers.

// worked examples, composite z-score included
[[record]]
molecule = "C=C(COC)/C(=C/C[C@H](OC(C)=O)c1ccccc1OCCO)c1cnc2ccccc2c1"
reportedendpoint = "composite z-score"
valuereported = 1.76

[[record]]
molecule = "C=CCC(OC(C)=O)[C@@H]1[C@@H](N(Cc2ccc(-c3cccc(C(F)(F)F)c3)o2)C(=O)Cc2ccc(OC)cc2)c2cc(OCCCO)ccc2N1C(=O)Cc1ccc(OC)cc1 (stereo partly drawn)"
reportedendpoint = "composite z-score"
valuereported = -0.106

[[record]]
molecule = "NC(=O)[C@@]1(CCS(=O)(=O)c2ccccc2)N=C(c2ccc(OCCCO)cc2)O[C@H]1c1ccccc1"
reportedendpoint = "composite z-score"
valuereported = 3.6

[[record]]
molecule = "Cc1ccc(F)cc1S(=O)(=O)N[C@@H]1CCN(Cc2ccc(C(F)(F)F)cc2)C1"
reportedendpoint = "composite z-score"
valuereported = 1.08

[[record]]
molecule = "C[N+](C)(C)CCCC[C@@H]1NC(=O)[C@@H]2C[C@H](C(=O)NCCCCCCNC(=O)CS)[C@H](c3cccc(OCCO)c3)N2C1=O"
reportedendpoint = "composite z-score"
valuereported = 1.09

[[record]]
molecule = "Cc1ccc(N2C(=O)c3ccccc3[C@@H](C(=O)NC(C)C)[C@@H]2c2ccc(CO)cc2)nc1"
reportedendpoint = "composite z-score"
valuereported = 3.07


List the reported composite z-score of each molecule below.
1. [N-]=[N+]=NCc1ccccc1C[C@]1(C(=O)NCc2ccccc2)COC(c2ccc(OCCCO)cc2)=N1
2. C=C(C(=O)CC[C@H](OC(=O)c1cccnc1)c1ccccc1OCCO)C(C)C

1: 3.12; 2: 1.58

====

testDetails: compound effects on hepatocellular carcinoma cell viability – HepG2, calcein-AM fluorescence, 48 h, basal, profiling panel (AID 1164); note: test concentration not given here
conditionSet: higher = more signal
Kindly supply the reported z-score values for the records listed here.
Answers are plain numbers.

[[record]]
smilescode = "O=C1O[C@@H](c2ccccc2)[C@@H](c2ccccc2)N2[C@@H](c3ccccc3OCCO)[C@]3(C(=O)Nc4ccc(C#CC5(O)CCCCCC5)cc43)[C@@H](C(=O)NC[C@H](O)c3ccccc3)[C@H]12"
reportedendpoint = "z-score"
valuereported = -3.6

[[record]]
smilescode = "Cc1ccc(N2C(=O)c3ccccc3[C@@H](C(=O)NCC(C)C)[C@@H]2c2ccc(CO)cc2)nc1"
reportedendpoint = "z-score"
valuereported = 0.558

[[record]]
smilescode = "COC(=O)[C@@]1(Cc2ccc(F)cc2)[C@H]2c3cc(C(=O)N(C)C)n(CCc4c[nH]c5ccc(OC)cc45)c3C[C@H]2CN1C(=O)c1ccccc1"
reportedendpoint = "z-score"
valuereported = -0.885


# context switch: different compound, same z-score
Query (compound): "C=C[C@H](C)[C@H](O)c1ccc(OCCO)cc1" ; field requested: z-score
-0.548

====

testDetails: compound effects on hepatocellular carcinoma cell viability – HepG2, calcein-AM fluorescence, 48 h, basal, profiling panel (AID 1164); note: test concentration not given here
conditionSet: higher = more signal
reportedEndpoint: z-score
One number for each entry.

[[record]]
molecule = "[N-]=[N+]=Nc1ccccc1[C@@H]1OC(c2ccc(OCCCO)cc2)=N[C@]1(CCS(=O)(=O)c1ccccc1)C(=O)N1CCCCC1"
valuereported = -0.0675

[[record]]
molecule = "Cc1ccc(S[C@]2(C(=O)NCCN3CCOCC3)CC(=O)N(C3CCCCC3)[C@@H]2c2ccc(CO)cc2)cc1"
valuereported = 0.555

[[record]]
molecule = "C=CC[C@@]1(C(=O)OC)N=C(c2ccc(OCCCO)cc2)O[C@@H]1c1ccccc1CN=[N+]=[N-]"
valuereported = -1.13

[[record]]
molecule = "O=C1O[C@@H](c2ccccc2)[C@@H](c2ccccc2)N2[C@@H](c3ccc(O)cc3)[C@]3(C(=O)Nc4ccc(C#CCCO)cc43)[C@@H](C(=O)O)[C@H]12"
valuereported = 1.41

[[record]]
molecule = "[N-]=[N+]=NCc1ccccc1C[C@]1(C(N)=O)N=C(c2ccc(OCCCO)cc2)O[C@H]1c1ccccc1N=[N+]=[N-]"
valuereported = -0.153

[[record]]
molecule = "CC(=O)n1cc(C(O)C2C=CC3C(=O)N(c4ccccc4)C(=O)C3N2Nc2ccc(C#N)cc2)c2ccccc21 (stereo not given)"
valuereported = 0.52

[[record]]
molecule = "COC(=O)[C@@]1(Cc2ccc(OC)cc2)[C@H]2c3cc(C(=O)N4CCCC4)n(CCN4CCOCC4)c3C[C@H]2CN1C(=O)c1ccccc1"
valuereported = 0.707

[[record]]
molecule = "[N-]=[N+]=NCc1ccccc1[C@H]1OC(c2ccc(OCCCO)cc2)=N[C@@]1(Cc1ccccc1)C(=O)O"
valuereported = 0.991

[[record]]
molecule = "CCCC[C@@H]1C[C@H]1[C@@H](NC(=O)c1ccccc1)c1ccc(-c2ccccc2)cc1"
valuereported = -3.24

[[record]]
molecule = "C=C(CCCC)/C(=C/C[C@H](OC(C)=O)c1ccc(CO)o1)c1cc(C(=O)OC)ccc1OC"
valuereported = -0.888


For every listed record, write down its z-score.
1. C=CCOC(=O)[C@H]1[C@@H]2C(=O)O[C@@H](c3ccccc3)[C@@H](c3ccccc3)N2[C@@H](c2ccc(OCCOC(=O)[C@@H]3C[C@@H]4C(=O)NCC(=O)N4[C@@H]3c3ccc(O)cc3)cc2)[C@]12C(=O)Nc1ccc(I)cc12
2. O=C1O[C@@H](c2ccccc2)[C@@H](c2ccccc2)N2[C@@H](c3ccc(O)cc3)[C@]3(C(=O)Nc4ccccc43)[C@@H](C(=O)NC[C@H](O)c3ccccc3)[C@H]12
3. COc1ccc(C(O)C2C=CC3C(=O)N(c4ccccc4)C(=O)C3N2Nc2ccccc2)c2ccccc12 (stereo not given)
4. C#C[C@H]1Oc2ccccc2S(=O)(=O)N2CCC[C@@H]12
5. CCCCC(=O)N(Cc1ccccc1F)[C@@H]1CC(C(=O)NCCO)=C[C@H](Oc2c(I)cc(CO)cc2OC)[C@H]1O

1. -0.368
2. -0.121
3. 0.407
4. -1.19
5. -0.765

====

testDetails: growth of efflux-deficient E. coli DRC39 – strain DRC39, OD650, 24 h, E. coli filamentation inducers, primary screen (AID 1178);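 note: growth measured as culture turbidity by optical density at 650 nm; test concentration not given here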
conditionSet: E. coli DRC39 acrAB, higher = more signal, called active from +8 up or from −8 down
Would you mind telling me the reported z-score of each entry?
Numbers only.

Answered cases to consult:
[[record]]
molecule = "[N-]=[N+]=Nc1ccccc1C[C@]1(C(=O)N2CCCCC2)N=C(c2ccc(OCCCO)cc2)O[C@H]1c1ccccc1N=[N+]=[N-]"
valuereported = -0.125

[[record]]
molecule = "C=C(C)[C@@H]1CC=C(C(O)C2C=CC3C(=O)N(Cc4ccccc4)C(=O)C3N2n2cnnc2)CC1 (some centres undefined)"
valuereported = 0.518

[[record]]
molecule = "C=C[C@H](OC)[C@@H](OC(=O)Nc1ccc(SC)cc1)c1ccc(OCCO)cc1"
valuereported = 0.0364


Turning to the following molecule.
Reported z-score, molecule "C[N+](C)(C)CCCCNC(=O)[C@H]1C[C@H]2C(=O)N3CCC[C@H]3C(=O)N2[C@H]1c1ccc(O)cc1" : ____
0.0346
